- PROTOCOL SUMMARY: NeuroPK: plasma and brain levels after i.v. administration
- Type: in vivo, male C57BL/6 mice
- APPLIED CONDITIONS: male, C57BL/6, plasma, iv; mouse, i.v. 10 mg/kg, 8 h
MEASURED ENDPOINT: concentration at 8 h (ng/mL)
Report the value in ng/mL with no unit label.

Asked: State the recorded concentration at 8 h for this entry: CN(C(=O)c1cc(N)cc(Nc2cccc3c2OCO3)n1)c1ccccc1 [Compound 3]
Given back: 11.4

###

- TESTED SYSTEM: human recombinant GCase (Cerezyme) (Homo sapiens, UniProt P04062, R534H)
- Construct: The human full-length GCase protein (Cerezyme, wild type, not tagged; Genzyme, Naarden, The Netherlands)
- PROTOCOL SUMMARY: Surface plasmon resonance (SPR) binding to immobilized GCase
- APPLIED CONDITIONS: SPR, pH 7.4
Reported pKd values follow for various molecules
By convention, pKd is the negative base-10 log of a molar concentration.

Asked: State the recorded pKd for this entry: `CN(C(=O)c1cc(N)cc(Nc2cccc3c2OCO3)n1)c1ccccc1`
Given back: 4.29

Asked: Please do the same for `CN(Cc1ccccc1)Cc1nc(N)nc(Nc2cccc(Br)c2)n1` as well.
Given back: 4.53

###

- TESTED SYSTEM: GCase (Homo sapiens)
- Sequence (P04062 40-536): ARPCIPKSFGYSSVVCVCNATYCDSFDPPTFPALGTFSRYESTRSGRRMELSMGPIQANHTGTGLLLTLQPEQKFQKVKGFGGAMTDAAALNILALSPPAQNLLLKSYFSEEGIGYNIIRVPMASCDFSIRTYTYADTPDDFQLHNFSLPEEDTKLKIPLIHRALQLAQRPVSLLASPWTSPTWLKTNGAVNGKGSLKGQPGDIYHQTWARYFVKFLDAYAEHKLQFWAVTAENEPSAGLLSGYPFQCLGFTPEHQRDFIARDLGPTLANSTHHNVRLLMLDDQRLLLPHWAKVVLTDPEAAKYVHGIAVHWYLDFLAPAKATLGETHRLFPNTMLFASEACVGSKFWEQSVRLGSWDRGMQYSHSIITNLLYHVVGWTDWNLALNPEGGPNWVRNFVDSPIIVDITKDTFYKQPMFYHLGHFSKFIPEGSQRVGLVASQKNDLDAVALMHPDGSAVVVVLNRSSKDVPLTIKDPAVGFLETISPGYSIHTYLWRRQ
MEASURED ENDPOINT: pKd
By convention, pKd is the negative base-10 log of a molar concentration.

Asked: Quick check: pKd on GCase (Homo sapiens), item `CCc1ccc(CN(C)Cc2nc(N)nc(Nc3ccc(C)cc3)n2)cc1` ?
Given back: 4.63

###

- PROTOCOL SUMMARY: NeuroPK: plasma and brain levels after i.v. administration
- Assay type: in vivo, male C57BL/6 mice
- APPLIED CONDITIONS: male, C57BL/6, brain/plasma, iv; mouse, i.v. 10 mg/kg, 0.25 h
MEASURED ENDPOINT: Kp at […]
I'd appreciate a reply containing only the number, no unit.

Asked: State the recorded Kp at […] for this entry: CN(C(=O)c1cc(N)cc(Nc2cccc3c2OCO3)n1)c1ccccc1 [Compound 3]
Given back: 4.37

###

- PROTOCOL SUMMARY: NeuroPK: plasma and brain levels after i.v. administration
- Format: in vivo, male C57BL/6 mice
- APPLIED CONDITIONS: male, C57BL/6, plasma, iv; mouse, i.v. 10 mg/kg, 0.25 h
MEASURED ENDPOINT: concentration at […] (ng/mL)
Report the value in ng/mL with no unit label.

Asked: State the recorded concentration at […] for this entry: `CN(C(=O)c1cc(N)cc(Nc2cccc3c2OCO3)n1)c1ccccc1`
Given back: 1970
